Each item that follows carries a reported MNTC at 48 h.
Test: Toxicity to host cells
Format: cell-based, human
Conditions: in the HSV test; human fetal fibroblasts; read-out: concentration up to which no evidence of toxicity was shown

So what does the record say about MNTC at 48 h for O=c1[nH]c(=O)n(COC(COCc2ccccc2)COCc2ccccc2)cc1F [5F-benzyl-U*] ? > 110 µg/mL

Now consider a different compound.
So what does the record say about MNTC at 48 h for Nc1ncn(COC(CO)CO)c(=O)n1 [5-aza-C*] ? > 304 µg/mL
